Test system: PC-6
assay.remarks: Cytotoxicity against human PC6 cells by MTT assay
Assay type: functional, cell-based

smiles.structure: COc1c(O)cc2c(c1OC)C(=O)c1ccc(C)cc1C2=O
subject.of.test: PC-6
IC50 / µM: 52.2

---

assay.remarks: Cytotoxicity against human U251SP cells by MTT assay
Format: functional, cell-based
readout.kind: IC50 (µM)

smiles.structure: COc1cc(O)c(C(=O)/C=C/c2ccc(O)cc2)c(OC)c1OC
endpoint.value: 92.7
